Data provenance is patent US9227956B2.

Listed molecules paired with reported pIC50
- Tested on: human PCSK9
- assay.remarks: Cell Free PCSK9 Assay (PCSK9-luciferase RNA translated in HeLa cell lysate)
- Type: biochemical
- condition.set: 30° C. for 45 minutes, luciferase readout, top concentration 100 μM
Value format note: pIC50 is -log10 of concentration (mol/L); just state the number.

Example entries and their recorded answers appear below.
| molecule | target | pIC50 |
| --- | --- | --- |
| CCC(=O)OC(C)n1nnc(-c2c(-c3ccc(C(=O)N(c4ncccc4C)[C@@H]4CCCNC4)cc3)cnn2C)n1 (single isomer, unassigned) [Example 45] | human PCSK9 | 4.60 |
| CCOC(=O)c1c(-c2ccc(C(=O)N(c3ncccc3Cl)[C@@H]3CCCNC3)cc2)cnn1C | human PCSK9 | 5.77 |

Please find the next molecule below.
Hi! What's the reported pIC50 for Cn1ncc(-c2ccc(C(=O)N(c3ncccc3Cl)[C@@H]3CCCNC3)cc2)c1C(=O)O on human PCSK9?
4.74
